# testDetails: chemical genetic growth profiling, strain panel (AID 1159580);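 also: tested at 20 µM; growth read once vehicle control cultures reached saturation at 30 °C; 1 = growth at the plate median or of vehicle wells; lower values mean less growth of the strain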
# particulars: S. cerevisiae deletion strains, growth OD, locus YLR039C, strain RIC1
Screen size: about 5,500 compounds; about 2,000 (36%) were called active. About 18% were inconclusive and are not listed. Rule as the data show it: active = normalized growth mostly below about 0.91 (no sharp cut-off); inconclusive = no clear call, values can overlap the other calls; inactive = mostly above about 0.92. The list shows a part of the results.
Tick one outcome: active, inactive

Exam item: Assay result, entry C[C@]12CC(=O)C3C(CC[C@@H]4C[C@H](O)CC[C@]34C)C1CC[C@]2(O)C(=O)CO (stereo not given in full) — outcome?
Marked response: inactive

Exam item: Assay result, entry `CCOC(=O)c1[nH]c(Cc2[nH]c(C(=O)OCC)c(C)c2C)c(C)c1C` — outcome?
Marked response: inactive

Exam item: Assay result, entry `CCN(CC)CCNC(=O)c1cc(Br)c(N)cc1OC` — outcome?
Marked response: inactive

Exam item: Assay result, entry COc1ccc(C2=C(C(C)=O)C(C)=NC(=S)C2C#N)cc1 (stereo not given) — outcome?
Marked response: inactive

Exam item: Assay result, entry `S=c1nc[nH]c2nc[nH]c12` — outcome?
Marked response: inactive

Exam item: Assay result, entry `Cc1ccc(C)c(NC(=S)N(CCc2ccccc2)CCc2ccccn2)c1` — outcome?
Marked response: active

Exam item: Assay result, entry `O=C(Oc1ccc(C(F)(F)F)cc1[N+](=O)[O-])c1c(F)cccc1F` — outcome?
Marked response: active

Exam item: Assay result, entry `Cc1c(O)c(C(=O)CC(C)C)c2oc3c(C(=O)CC(C)C)c(O)c(C)c(O)c3c2c1O` — outcome?
Marked response: inactive

Exam item: Assay result, entry `O=C1c2cccc3cc([N+](=O)[O-])cc(c23)C(=O)N1CCO` — outcome?
Marked response: inactive

Exam item: Assay result, entry `Cc1cc(O)c(C)c(O)c1C(=O)O` — outcome?
Marked response: inactive

Exam item: Assay result, entry `CCOC(=O)c1c(C)cc(O)c(C=O)c1O` — outcome?
Marked response: active

Exam item: Assay result, entry `O=C1C=CC(=C(c2ccc(O)cc2)c2ccc(O)cc2)C=C1` — outcome?
Marked response: inactive

Exam item: Assay result, entry CCN(CC)CCCC(C)Nc1ccnc2cc(Cl)ccc12 (stereo not given) — outcome?
Marked response: inactive

Exam item: Assay result, entry `CCCCCCCCCCCCCCCC[N+](C)(C)C` — outcome?
Marked response: active

Exam item: Assay result, entry `COc1cc(NS(=O)(=O)c2ccc(N)cc2)nc(OC)n1` — outcome?
Marked response: inactive

---

# testDetails: chemical genetic growth profiling, strain panel (AID 1159580)
# particulars: S. cerevisiae deletion strains, growth OD, locus YKL068W, active compounds read low
The campaign covered roughly 5,500 compounds. About 2,000 (36%) were called active. Not shown: some 18% with an inconclusive outcome. The list shows a part of the results.
measuredAttribute: normalized growth
Give the figure only, with no unit attached.

Exam item: Give recorded normalized growth. `CCCCCCCCCCCCCCCC(=O)OC/C=C(C)/C=C/C=C(C)/C=C/C1=C(C)CCCC1(C)C`
Marked response: 0.985

Exam item: Give recorded normalized growth. CCOC(=O)C(Cc1ccc(O)cc1)NC(C)=O (centres undefined)
Marked response: 1

Exam item: Give recorded normalized growth. C=C(C)C1CNC(C(=O)O)C1CC(=O)O (centres undefined)
Marked response: 1.02

Exam item: Give recorded normalized growth. `COc1cc(NS(=O)(=O)c2ccc(N)cc2)nc(OC)n1`
Marked response: 0.984

Exam item: Give recorded normalized growth. COc1cc2c(cc1OC)C1C(=O)c3c(O)cc4c(c3OC1CO2)C=CC(C)(C)O4 (centres undefined)
Marked response: 1.01

Exam item: Give recorded normalized growth. CCOC(=O)C1(O)Oc2cc(OC)cc(OC)c2C(=O)C1c1ccccc1 (centres undefined)
Marked response: 1

Exam item: Give recorded normalized growth. CC(N)C(=O)OC(C)(C)Cc1ccc(Cl)cc1 (centres undefined)
Marked response: 0.992

Exam item: Give recorded normalized growth. CCOC(=O)C(=O)C1(C(=O)OCC)Oc2cc(OC)cc(OC)c2C(=O)C1c1ccccc1 (centres undefined)
Marked response: 0.955

Exam item: Give recorded normalized growth. CC1=C(CC(=O)O)c2cc(F)ccc2/C1=C\c1ccc(S(C)=O)cc1 (centres undefined)
Marked response: 1.01

Exam item: Give recorded normalized growth. N=c1ccn2c(n1)O[C@@H]1C2O[C@H](CO)[C@H]1O (some centres undefined)
Marked response: 1.01

Exam item: Give recorded normalized growth. CC1=C(C(C)O)C2=NC1C=c1[nH]c(c(C)c1C(C)O)=Cc1[nH]c(c(CCC(=O)O)c1C)C=c1[nH]c(c(C)c1CCC(=O)O)=C2 (centres undefined)
Marked response: 1.01

Exam item: Give recorded normalized growth. `CNCCc1ccccn1`
Marked response: 1.01

Exam item: Give recorded normalized growth. COc1cc2c(cc1OC)C1C(=O)c3c(OC)cc4c(c3OC1CO2)CCC(C)(C)O4 (centres undefined)
Marked response: 0.983

Exam item: Give recorded normalized growth. `CCOC(=O)C(C)(C)Oc1ccc(Cl)cc1`
Marked response: 1

---

# testDetails: chemical genetic growth profiling, strain panel (AID 1159580)
# particulars: S. cerevisiae deletion strains, growth OD, locus YHR079C, strain IRE1 (second series)
Screen size: about 5,500 compounds; about 2,000 (36%) were called active. Another 18% or so got no clear call; they are omitted. No stated cut-off is given here; in the data, active means normalized growth mostly below about 0.91 (no sharp cut-off); inconclusive means no clear call, values can overlap the other calls; inactive means mostly above about 0.92. This is one part of the list.
Tick one outcome: active, inactive

Exam item: Assay result, entry COc1cc2c(cc1OC)C1C(=O)c3c(O)cc4c(c3OC1CO2)C=CC(C)(C)O4 (centres undefined) — outcome?
Marked response: inactive

Exam item: Assay result, entry ClC1=C(Cl)C2(Cl)C3C4C=CC(C4)C3C1(Cl)C2(Cl)Cl (centres undefined) — outcome?
Marked response: inactive

Exam item: Assay result, entry Cc1cccc(C)c1OCC(C)N (centres undefined) — outcome?
Marked response: inactive

Exam item: Assay result, entry `CN(C)c1ccc(C(=C2C=CC(=[N+](C)C)C=C2)c2ccc(N(C)C)cc2)cc1` — outcome?
Marked response: active

---

Please provide measured normalized growth for the entries that follow.
# testDetails: chemical genetic growth profiling, strain panel (AID 1159580);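 also: tested at 20 µM; growth read once vehicle control cultures reached saturation at 30 °C; 1 = growth at the plate median or of vehicle wells; lower values mean less growth of the strain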
# particulars: S. cerevisiae deletion strains, growth OD, locus YLR039C, strain RIC1, active compounds read low
About 2,000 (36%) of roughly 5,500 compounds were called active. Roughly 18% stayed inconclusive and do not appear here. Some of the results follow.
Give the figure only, with no unit attached.

Exam item: Give recorded normalized growth. N=c1ccn2c(n1)O[C@@H]1C2O[C@H](CO)[C@H]1O (stereo partly drawn)
Marked response: 1

Exam item: Give recorded normalized growth. `CCCCCCCCCCCCCCCC(=O)OC/C=C(C)/C=C/C=C(C)/C=C/C1=C(C)CCCC1(C)C`
Marked response: 1

Exam item: Give recorded normalized growth. `c1ccc(N=Nc2ccccc2)cc1`
Marked response: 0.878

Exam item: Give recorded normalized growth. `O=C(O)c1cc2ccccc2[nH]1`
Marked response: 1.01

Exam item: Give recorded normalized growth. `CC[C@H]1OC(=O)[C@H](C)[C@@H](O[C@H]2C[C@@](C)(OC)[C@@H](O)[C@H](C)O2)[C@H](C)[C@@H](O[C@@H]2O[C@H](C)C[C@H](N(C)C)[C@H]2O)[C@](C)(O)C[C@@H](C)CN(C)[C@H](C)[C@@H](O)[C@]1(C)O`
Marked response: 0.965

Exam item: Give recorded normalized growth. CCS(=O)CCSP(=O)(OC)OC (stereo not drawn)
Marked response: 1.04

Exam item: Give recorded normalized growth. `O=C(O)c1c2ccccc2cc2ccccc12`
Marked response: 1.04

Exam item: Give recorded normalized growth. CC1=C(/C=C/C(C)=C/C=C/C(C)=C/C=C/C=C(C)/C=C/C=C(C)/C=C/C2=C(C)C(=O)C(O)CC2(C)C)C(C)(C)CC(O)C1=O (stereo not drawn)
Marked response: 0.981

---

# testDetails: chemical genetic growth profiling, strain panel (AID 1159580);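 also: tested at 20 µM; growth read once vehicle control cultures reached saturation at 30 °C; 1 = growth at the plate median or of vehicle wells; lower values mean less growth of the strain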
# particulars: S. cerevisiae deletion strains, growth OD, locus YOR144C, strain elg1, active compounds read low
About 2,000 (36%) of roughly 5,500 compounds were called active. Not shown: some 18% with an inconclusive outcome. This is one part of the list.
Please provide measured normalized growth for the entries that follow.
Give the figure only, with no unit attached.

Exam item: Give recorded normalized growth. CC(N)C(=O)OC(C)(C)Cc1ccc(Cl)cc1 (centres undefined)
Marked response: 0.988

Exam item: Give recorded normalized growth. ClC1=C(Cl)C2(Cl)C3C4C=CC(C4)C3C1(Cl)C2(Cl)Cl (centres undefined)
Marked response: 0.991

Exam item: Give recorded normalized growth. N=c1ccn2c(n1)O[C@@H]1C2O[C@H](CO)[C@H]1O (some centres undefined)
Marked response: 1

Exam item: Give recorded normalized growth. `COc1cc2c(cc1OC)C(=O)OC2`
Marked response: 1

---

Please provide measured normalized growth for the entries that follow.
# testDetails: chemical genetic growth profiling, strain panel (AID 1159580);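 also: tested at 20 µM; growth read once vehicle control cultures reached saturation at 30 °C; 1 = growth at the plate median or of vehicle wells; lower values mean less growth of the strain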
# particulars: S. cerevisiae deletion strains, growth OD, locus YBR279W, strain paf1, active compounds read low
The campaign covered roughly 5,500 compounds. About 2,000 (36%) were called active. Roughly 18% stayed inconclusive and do not appear here. This is one part of the list.
Give the figure only, with no unit attached.

Exam item: Give recorded normalized growth. CC1=C(/C=C/C(C)=C/C=C/C(C)=C/C=C/C=C(C)/C=C/C=C(C)/C=C/C2=C(C)C(=O)C(O)CC2(C)C)C(C)(C)CC(O)C1=O (configuration not stated)
Marked response: 1.02

Exam item: Give recorded normalized growth. `CC1=C(/C=C/C(C)=C/C=C/C(C)=C/C=C/C=C(C)/C=C/C=C(C)/C=C/C2=C(C)C(=O)CCC2(C)C)C(C)(C)CCC1=O`
Marked response: 0.989

Exam item: Give recorded normalized growth. CCN(CC)CCCC(C)Nc1ccnc2cc(Cl)ccc12 (configuration not stated)
Marked response: 1.02

Exam item: Give recorded normalized growth. `CC(=O)OC(C)(C)[C@@H]1Cc2cc3ccc(=O)oc3cc2O1`
Marked response: 0.975

Exam item: Give recorded normalized growth. CC(=O)NC1SCCC1=O (configuration not stated)
Marked response: 0.99

Exam item: Give recorded normalized growth. `CCCCCCCCCCCCCCCC(=O)OC/C=C(C)/C=C/C=C(C)/C=C/C1=C(C)CCCC1(C)C`
Marked response: 1.01

Exam item: Give recorded normalized growth. `CC(C)(O)[C@@H]1[C@H]2OC(=O)[C@@H]1[C@]1(O)C[C@H]3O[C@]34C(=O)O[C@H]2[C@]14C`
Marked response: 1.01
